system: HCI13 (cells of an ER-positive luminal breast cancer xenograft); experiment: cell viability (% of vehicle); higher = less cytotoxic; conditions: 10 µM; 72 h
For each of the molecules below, state its cell viability.
Give bare numbers.

These solved cases illustrate the format of a correct answer.
[
  {
    "molecule": "NC(=O)N1CCC(CC(=O)N2CCC(C3c4ncc(Br)cc4CCc4cc(Cl)cc(Br)c43)CC2)CC1 (centres undefined)",
    "cell viability": 43.2
  },
  {
    "molecule": "COc1c(C)c2c(c(O)c1CC=C(C)CCC(=O)OCCN1CCOCC1)C(=O)OC2 [Mycophenolate Mofetil]",
    "cell viability": 81.8
  },
  {
    "molecule": "CS(=O)(=O)c1ccc(C2=C(c3ccccc3)C(=O)OC2)cc1",
    "cell viability": 141
  }
]

# input for lookup
Prompt: Provide the documented cell viability with HCI13 as the system for CN1CCN2c3ccccc3Cc3ccccc3C2C1.Cl (centres undefined) [Mianserin HCl]
Completion: 90

----------
system: HCI11 (cells of an ER-positive luminal breast cancer xenograft); assay: cell viability (% of vehicle); higher = less cytotoxic; details: 10 µM; 72 h
For each of the compounds below, state its cell viability.
Answers are plain numbers.

Please supply cell viability for each of the following items, keeping them in order.
1. CC(C)(C#N)c1cc(Cn2cncn2)cc(C(C)(C)C#N)c1
2. Nc1ccn(CC(CO)OCP(=O)(O)O)c(=O)n1.O.O (configuration not stated) [Cidofovir dihydrate]
3. NC(=O)C(CCC(F)(F)F)N(Cc1ccc(-c2ncon2)cc1F)S(=O)(=O)c1ccc(Cl)cc1 (configuration not stated)

Completion:
120
94.7
75.5

Please supply cell viability for each of the following items, keeping them in order.
1. Oc1ccc(C2CNCCc3c2cc(O)c(O)c3Cl)cc1 (configuration not stated)
2. COc1cc(C2c3cc4c(cc3C(OC3OC5COC(c6cccs6)OC5C(O)C3O)C3COC(=O)C23)OCO4)cc(OC)c1O (configuration not stated) [Teniposide]

Completion:
1. 101
2. 111

Please supply cell viability for each of the following items, keeping them in order.
1. CCC(C)(C)c1ccc(CC(C)CN2CC(C)OC(C)C2)cc1.Cl (configuration not stated) [Amorolfine HCl]
2. NS(=O)(=O)c1cc2c(cc1Cl)NCNS2(=O)=O [Hydrochlorothiazide]

Completion:
1: 83.8; 2: 92.7

Please supply cell viability for each of the following items, keeping them in order.
1. Cc1onc(-c2ccccc2Cl)c1C(=O)NC1C(=O)N2C1SC(C)(C)C2C(=O)[O-].O.[Na+] (configuration not stated) [Cloxacillin Sodium]
2. CN1C(C(=O)Nc2ccccn2)=C(O)c2ccccc2S1(=O)=O
3. COc1cc(Nc2ncc(F)c(Nc3ccc4c(n3)N(COP(=O)([O-])[O-])C(=O)C(C)(C)O4)n2)cc(OC)c1OC.[Na+].[Na+] [R788 disodium]
4. O=C1C=CC=CC1=C1NC(=C2C=CC=CC2=O)N(c2ccc(C(=O)O)cc2)N1
5. Cc1ccc(NC(=O)c2ccc(CN3CCN(C)CC3)cc2)cc1Nc1nccc(-c2cccnc2)n1 [Imatinib (STI571)]

Completion:
134
133
86.8
107
89.4

----------
tested on: HCI13; test: cell viability (% of vehicle); higher = less cytotoxic; conditions: 10 µM; 72 h
For each of the molecules below, state its cell viability.
Give bare numbers.

These solved cases illustrate the format of a correct answer.
[
  {
    "molecule": "CCCCc1oc2ccc(NS(C)(=O)=O)cc2c1C(=O)c1ccc(OCCCN(CCCC)CCCC)cc1 [Dronedarone]",
    "target or system": "HCI13",
    "observed result": 35.6
  },
  {
    "molecule": "CC(C)(C)c1ccc(C(=O)CCCN2CCC(OC(c3ccccc3)c3ccccc3)CC2)cc1 [Ebastine]",
    "target or system": "HCI13",
    "observed result": 31.9
  },
  {
    "molecule": "CNC(=O)[C@H](Cc1ccccc1)NC(=O)[C@H](CC(C)C)[C@H](CSc1cccs1)C(=O)NO [Batimastat (BB-94)]",
    "target or system": "HCI13",
    "observed result": 127
  },
  {
    "molecule": "CCCC1CC(C(=O)NC(C(C)Cl)C2OC(SC)C(O)C(O)C2O)N(C)C1 (stereo not drawn) [Clindamycin]",
    "target or system": "HCI13",
    "observed result": 76.4
  },
  {
    "molecule": "CCC(=C(CC)c1ccc(O)cc1)c1ccc(O)cc1 [Diethylstilbestrol]",
    "target or system": "HCI13",
    "observed result": 41
  }
]

Please supply cell viability for each of the following items, keeping them in order.
1. Cc1cc(C)cc(OCC2CNC(=O)O2)c1 (stereo not drawn) [Metaxalone]
2. CC1(C)SC2C(NC(=O)C(NC(=O)N3CCN(S(C)(=O)=O)C3=O)c3ccccc3)C(=O)N2C1C(=O)O.[Na] (stereo not drawn) [Mezlocillin Sodium]
3. CC1(c2nc3c(C(N)=O)cccc3[nH]2)CCCN1 (stereo not drawn) [ABT-888 (Veliparib)]

Completion:
120
89.7
86.9

----------
For each of the compounds below, state its cell viability of combination.
system: WHIM2 (cells of a triple-negative basal-like breast cancer xenograft); experiment: cell viability of combination (% of vehicle); higher = less cytotoxic; conditions: 1 µM; 72 h; partner dose: 10 nM
Numbers only.

[
  {
    "compound": "CCc1oc2ccccc2c1C(=O)c1cc(Br)c(O)c(Br)c1 [Benzbromarone] + CN(C)C/C=C/C(=O)Nc1cc2c(Nc3ccc(F)c(Cl)c3)ncnc2cc1O[C@H]1CCOC1",
    "observed result": 48
  },
  {
    "compound": "CCOc1cc2ncc(C#N)c(Nc3ccc(F)c(Cl)c3)c2cc1NC(=O)C=CCN(C)C [Pelitinib (EKB-569)] + CN(C)C/C=C/C(=O)Nc1cc2c(Nc3ccc(F)c(Cl)c3)ncnc2cc1O[C@H]1CCOC1",
    "observed result": 22.1
  },
  {
    "compound": "COc1ccc2c(O[C@H]3CC4C(=O)N(C)CCCC/C=C\\[C@H]5C[C@@]5(C(=O)NS(=O)(=O)C5CC5)NC(=O)[C@@H]4C3)cc(-c3nc(C(C)C)cs3)nc2c1C (some centres undefined) [Simeprevir] + CN(C)C/C=C/C(=O)Nc1cc2c(Nc3ccc(F)c(Cl)c3)ncnc2cc1O[C@H]1CCOC1",
    "observed result": 46.8
  }
]

# input for lookup
Prompt: Please give the measured cell viability of combination for this compound: CNC(=O)c1cc(Oc2ccc(NC(=O)Nc3ccc(Cl)c(C(F)(F)F)c3)c(F)c2)ccn1.Cl [Regorafenib hydrochloride] + CN(C)C/C=C/C(=O)Nc1cc2c(Nc3ccc(F)c(Cl)c3)ncnc2cc1O[C@H]1CCOC1
Completion: 43.3

----------
tested on: HCI16 (cells of a triple-negative basal-like breast cancer xenograft); test: cell viability (% of vehicle); higher = less cytotoxic; conditions: 10 µM; 72 h
measured parameter: cell viability
Numbers only.

These solved cases illustrate the format of a correct answer.
[
  {
    "molecule": "C=CC[N+]1(C2CC3C4CCC5CC(O)C(N6CCOCC6)CC5(C)C4CCC3(C)C2OC(C)=O)CCCC1.[Br-] (stereo not drawn) [Rocuronium Bromide]",
    "measured parameter": "cell viability",
    "observed result": 80.4
  },
  {
    "molecule": "COc1nc(C)cnc1NS(=O)(=O)c1cccnc1-c1ccc(-c2nnco2)cc1 [Zibotentan (ZD4054)]",
    "measured parameter": "cell viability",
    "observed result": 125
  },
  {
    "molecule": "CN1C[C@@H]2c3ccccc3Oc3ccc(Cl)cc3[C@H]2C1.O=C(O)/C=C/C(=O)O [Asenapine]",
    "measured parameter": "cell viability",
    "observed result": 121
  },
  {
    "molecule": "CCN(CC)C(=O)C1(c2ccccc2)CC1CN.Cl (stereo not drawn) [Milnacipran HCl]",
    "measured parameter": "cell viability",
    "observed result": 105
  },
  {
    "molecule": "CCOC(=O)C(CCc1ccccc1)NC1CSC(c2cccs2)CN(CC(=O)O)C1=O.Cl (stereo not drawn) [Temocapril HCl]",
    "measured parameter": "cell viability",
    "observed result": 101
  },
  {
    "molecule": "CN(C)CCCN1c2ccccc2Sc2ccc(Cl)cc21.Cl [Chlorpromazine HCl]",
    "measured parameter": "cell viability",
    "observed result": 122
  },
  {
    "molecule": "NC(CO)(CO)CO [Trometamol]",
    "measured parameter": "cell viability",
    "observed result": 104
  }
]

# input for lookup
Prompt: Please give the measured cell viability for this molecule: `C=CC(=O)Nc1cccc(Nc2nc(Nc3ccc(N4CCN(C(C)=O)CC4)cc3OC)ncc2C(F)(F)F)c1`
Completion: 73.3

----------
system: UCD52 (cells of a triple-negative basal-like breast cancer xenograft); experiment: cell viability (% of vehicle); higher = less cytotoxic; settings: 10 µM; 72 h
Kindly apply the following: 1 if cell viability is less than 100, 0 in every other case.

[
  {
    "compound": "CCCN(CCC)S(=O)(=O)c1ccc(C(=O)O)cc1",
    "class": 0
  },
  {
    "compound": "C[C@@H]1C\\C=C/C=C\\C=C/C=C\\[C@H](O[C@@H]2O[C@H](C)[C@@H](O)[C@H](N)[C@@H]2O)C[C@@H]2O[C@](O)(C[C@@H](O)C[C@H]3O[C@@H]3/C=C\\C(=O)O1)C[C@H](O)[C@H]2C(=O)O",
    "class": 0
  },
  {
    "compound": "CC(Nc1ncnc2nc[nH]c12)c1cc2cccc(Cl)c2c(=O)n1-c1ccccc1 (stereo unspecified)",
    "class": 1
  },
  {
    "compound": "C#C[C@]1(O)CC[C@H]2[C@@H]3CCC4=CC(=O)CC[C@@H]4[C@H]3C(=C)C[C@@]21CC",
    "class": 0
  },
  {
    "compound": "Cc1cccc(C)c1OCC(=O)NC(Cc1ccccc1)C(O)CC(Cc1ccccc1)NC(=O)C(C(C)C)N1CCCNC1=O (stereo unspecified)",
    "class": 1
  }
]

Prompt: Hello, is cell viability of the following compound strictly smaller than 100? Cl.N#Cc1ccc2[nH]cc(CCCCN3CCN(c4ccc5oc(C(N)=O)cc5c4)CC3)c2c1 [Vilazodone Hydrochloride]
Completion: 0

Prompt: Hello, is cell viability of the following compound strictly smaller than 100? `C=CC(=O)Nc1cccc(Nc2nc(Nc3ccc(N4CCN(C(C)=O)CC4)cc3OC)ncc2C(F)(F)F)c1`
Completion: 1

Prompt: Hello, is cell viability of the following compound strictly smaller than 100? CCCN(CCC)CCc1cccc2c1CC(=O)N2.Cl [Ropinirole HCl]
Completion: 1

Prompt: Hello, is cell viability of the following compound strictly smaller than 100? CC(N)(Cc1ccc(O)c(O)c1)C(=O)O (stereo unspecified)
Completion: 1

Prompt: Hello, is cell viability of the following compound strictly smaller than 100? COc1cccc2c1C(=O)c1c(O)c3c(c(O)c1C2=O)CC(O)(C(=O)CO)CC3OC1CC(N)C(O)C(C)O1 (stereo unspecified)
Completion: 1

Prompt: Hello, is cell viability of the following compound strictly smaller than 100? Cc1ccccc1N1C(=O)c2cc(S(N)(=O)=O)c(Cl)cc2NC1C (stereo unspecified)
Completion: 0

Prompt: Hello, is cell viability of the following compound strictly smaller than 100? NC(=O)C1CCCc2c1[nH]c1ccc(Cl)cc21 (stereo unspecified)
Completion: 0
